Test: Human HepG2 cell viability assay in 384 well format
Format: toxicity, cell-based
Parameters: dose 125 nL, time 70.5 hour; concentration not given beside the values
Settings: HepG2 cells, read-out: Inhibition
Quantity Kind: cytotoxicity at 70.5 h (%)
Answers are plain numbers, in %.

| Compound | Data Value |
| --- | --- |
| CN1CC=C(c2noc(CCC(=O)N3CCCC3)n2)CC1 | 7.74 |

Record cytotoxicity at 70.5 h for all entries; do not skip any.
1. CC(Sc1nnc(C2CC2)n1CC(N)=O)c1ccc(F)c(Cl)c1 (configuration not stated)
2. COCCC(=O)N1CCC(c2cc(O)n(C)n2)C1 (configuration not stated)

1. -6.61
2. 1.63

I need cytotoxicity at 70.5 h for every entry listed below, if you could help.
1. CC(C)c1noc(C(C)N2CCN(Cc3ccsc3)CC2)n1 (configuration not stated)
2. CC(=O)CSc1sc2c(O)cc(=O)[nH]c2c1C(N)=O
3. Cc1cccc2nc(-c3nc4c([nH]3)CCCNC4=O)cn12
4. Cn1c(C(=O)N2CCC(CC(N)=O)CC2)c(Cl)c2ccccc21

1. -5.78
2. -12.7
3. 16
4. 28.2

Okay, here is my list. What is cytotoxicity at 70.5 h for each of these?
1. COCCNC(=O)C(C)n1nc(-c2ccc(C)o2)cc(N)c1=O (configuration not stated)
2. CCNc1cc2c(nn1)CCN(C(=O)Cc1c(C)noc1C)C2

1: 39.4; 2: 4.3

For the 3 compounds below, give their cytotoxicity at 70.5 h values.
1. CO[C@H]1CN(C(=O)c2ccc(-c3cc[nH]n3)cc2)CC[C@H]1N
2. Cc1nc(CCNC(=O)NC2CCN(c3ncccn3)CC2)cs1
3. CC(C)C(C(=O)N1CCCN(Cc2cscn2)CC1)n1cncn1 (configuration not stated)

1: -8.35; 2: -8.38; 3: -4.6

====

What cytotoxicity at 70.5 h was measured for each of the following?
Experiment: Human HepG2 cell viability assay in 384 well format
Format: toxicity, cell-based
Design: dose 125 nL, time 70.5 hour; concentration not given beside the values
Conditions: HepG2 cells, read-out: Inhibition
Numbers only, in %.

| Compound | cytotoxicity at 70.5 h (%) |
| --- | --- |
| CN1Cc2ccccc2CC2(CCN(C(=O)[C@H]3CCCO3)CC2)C1=O | -4.74 |
| Cc1cnn(C2CCCN(C(=O)c3ccnc(-n4cncn4)c3)C2)c1 (stereo unspecified) | -7.22 |
| CN(CCc1ccccc1)Cc1cc(C(=O)N2CCSCC2)no1 | -3.85 |
| COCC(=O)N1CCCC(C(=O)N(C)CCCc2cnn(C)c2)C1 (stereo unspecified) | 1 |

Hello, I would appreciate it if you could give cytotoxicity at 70.5 h for each entry below.
1. COC(=O)c1ccc(N(C(=O)c2ccncc2)C(C)C)c(C)c1
2. Cc1oncc1C(=O)N1CC[C@H]2[C@H](C[C@@H](CN3CCCC3)N2C)C1
3. CC(C)N1CC(C(=O)N2CCN(CCn3cccc3)CC2)CC1=O (stereo unspecified)

1: -17.2; 2: -2.32; 3: -3.03

Take each entry in turn and give its cytotoxicity at 70.5 h.
1. CNC(=O)N1CCC(NC(=O)c2cnn(C)c2)CC1
2. CC1(C)CN(c2cc(C3CC3)ncn2)C[C@]1(C)O
3. CCc1cc(=O)[nH]c(-c2ccc(NCCC(C)O)nc2)n1 (stereo unspecified)
4. Cc1cc(C)n(CC2CCCN2Cc2nc(N)c3ccccc3n2)n1 (stereo unspecified)

-11.2
21.7
-5.98
-3.06
